ASSAY_INFO: Selectivity index, ratio of CC50 for human MT4 cells to EC50 for HIV1 RES056 harboring reverse transcriptase K103N/Y181C RT mutant
Type: toxicity, cell-based
MEASUREMENT_PARAMETERS: read-out: Ratio CC50/EC50
RECORDED_METRIC: selectivity ratio

Here are 3 compounds together with their reported answers.
COMPOUND: O=C1Nc2ccc(Cl)cc2[C@@](C#CC2CC2)(C(F)(F)F)O1 [EFAVIRENZ]
RESULT: > 12
//
COMPOUND: CCOC(=O)c1ccc(CN2CCC(Nc3nc(NC)nc(Nc4c(C)cc(C)cc4C)n3)CC2)cc1
RESULT: < 1
//
COMPOUND: Cc1ccnc2c1NC(=O)c1cccnc1N2C1CC1 [NEVIRAPINE]
RESULT: ≥ 1

The value of selectivity ratio measured for the compound Cc1cc(C)c(Nc2nc(N)nc(NC3CCN(Cc4ccc(C#N)cc4)CC3)n2)c(C)c1 turned out to be < 1
